target: Luciferin 4-monooxygenase (Photinus pyralis); assay: Biochemical firefly luciferase enzyme assay for NPC (AID 624030);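 further: purified P. pyralis luciferase at 10 nM with luciferin and ATP substrate; nearly all actives have a fitted effect of over 70% in size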; conditions: purified P. pyralis luciferase, luminescence, 5 min; series mostly up to 58.6 µM
Inconclusive results are not listed. The source made the active and inactive calls. The call rests on the fitted dose curve; in most records, active means well fitted inhibition curve with a large enough effect; inconclusive means small, poorly fitted or top-dose-only effect; inactive means flat fitted curve, though single readings scatter.

# Molecule, outcome
data = [
    ("Cc1ccc(Nc2nccc(N(C)c3ccc4c(C)n(C)nc4c3)n2)cc1S(N)(=O)=O", "inactive"),
    ("NC(=O)Cc1cccc(C(=O)c2ccccc2)c1N", "inactive"),
    ("Nc1cccc2c1CN(C1CCC(=O)NC1=O)C2=O (stereo not given)", "inactive"),
    ("COc1ccc2cc([C@H](C)C(=O)O)ccc2c1", "inactive"),
    ("CC1=C(C(=O)O)N2C(=O)[C@@H](NC(=O)[C@H](N)C3=CCC=CC3)[C@H]2SC1", "inactive"),
    ("COc1ccc(C2(C#N)CCC(C(=O)O)CC2)cc1OC1CCCC1 (stereo not given)", "inactive"),
    ("CCOc1cc(CC(=O)N[C@@H](CC(C)C)c2ccccc2N2CCCCC2)ccc1C(=O)O", "inactive"),
    ("Cc1nc2n(c(=O)c1CCN1CCC(c3noc4cc(F)ccc34)CC1)CCCC2", "inactive"),
    ("Cc1ncc([N+](=O)[O-])n1CC(C)O (stereo not given)", "inactive"),
    ("CCC[C@@H]1C[C@@H](C(=O)N[C@@H]([C@H]2O[C@H](SC)[C@H](O)[C@@H](O)[C@H]2O)[C@@H](C)O)N(C)C1", "inactive"),
]
